- Target Desc: TaqHK (Thermus aquaticus, UniProt P19821 1-832, E742H;A743K)
- Sequence (P19821 whole entry E742H/A743K): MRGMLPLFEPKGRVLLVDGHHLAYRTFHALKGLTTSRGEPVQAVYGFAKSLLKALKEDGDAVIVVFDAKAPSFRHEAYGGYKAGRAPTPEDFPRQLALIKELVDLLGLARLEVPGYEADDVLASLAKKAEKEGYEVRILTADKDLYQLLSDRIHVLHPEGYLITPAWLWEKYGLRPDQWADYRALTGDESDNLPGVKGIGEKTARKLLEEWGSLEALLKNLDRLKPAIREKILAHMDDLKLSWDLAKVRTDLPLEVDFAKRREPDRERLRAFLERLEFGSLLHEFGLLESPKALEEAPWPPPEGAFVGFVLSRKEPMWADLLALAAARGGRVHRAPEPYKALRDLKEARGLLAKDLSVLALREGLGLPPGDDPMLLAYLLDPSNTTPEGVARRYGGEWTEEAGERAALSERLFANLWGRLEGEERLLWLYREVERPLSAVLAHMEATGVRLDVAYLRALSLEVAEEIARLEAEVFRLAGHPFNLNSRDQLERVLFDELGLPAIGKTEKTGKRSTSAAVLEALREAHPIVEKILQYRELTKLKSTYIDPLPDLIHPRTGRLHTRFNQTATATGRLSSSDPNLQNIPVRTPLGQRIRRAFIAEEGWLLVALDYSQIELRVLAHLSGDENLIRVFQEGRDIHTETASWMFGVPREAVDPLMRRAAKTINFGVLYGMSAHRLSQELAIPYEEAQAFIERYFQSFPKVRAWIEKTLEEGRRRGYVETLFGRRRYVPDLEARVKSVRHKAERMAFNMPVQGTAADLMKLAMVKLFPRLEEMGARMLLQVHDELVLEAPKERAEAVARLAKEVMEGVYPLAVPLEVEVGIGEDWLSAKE
- Assay Info: EMSA; 5 mM Mg2+; apparent Kd; EMSA: 3 nM DNA, 20 mM Tris-HCl pH 8.8, 10 mM NaCl, 5 mM MgCl2, 14 mM 2-mercaptoethanol, 0.1 mg/ml BSA, 5% glycerol, 40 C, 5 min; 1% agarose gel
- Condition Description: protein: recombinant; label: 32P on 27mer; primer-template; 27 bp duplex, 5' overhang 22 nt on the 49mer template
Quantity Name: pKd
Give bare numbers, as −log10 of the molar value.

stdin: Given the binder primed DNA (27mer/49mer) (dsDNA) DNA 1: AGCTATGACCATGATTACGAATTGCTT DNA 2: AGCTACCATGCCTGCACGAATTAAGCAATTCGTAATCATGGTCATAGCT , what is its reported pKd?
stdout: 8.22
